# SYSTEM UNDER TEST: ZYG11B (residues 490–728) (UniProt Q9C0D3 490-728)
# Sequence (Q9C0D3 other isoform, or with tags, fused parts or gaps): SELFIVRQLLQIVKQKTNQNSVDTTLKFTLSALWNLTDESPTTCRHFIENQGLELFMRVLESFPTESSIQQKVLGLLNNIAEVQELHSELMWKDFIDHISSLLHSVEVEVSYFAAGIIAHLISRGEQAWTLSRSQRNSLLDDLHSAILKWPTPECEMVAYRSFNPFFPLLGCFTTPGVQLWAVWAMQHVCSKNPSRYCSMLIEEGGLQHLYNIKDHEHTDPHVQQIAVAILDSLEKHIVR
# TEST SUMMARY: ITC
pKd: −log10 of the molar value.
PROPERTY LABEL: pKd

[A] AFLHVGQD (Printed N-terminus SELF is read as vector Ser plus native E490-L491-F492 (numbering from the 7XYW entity, 485-728 starting AQLGTELF); His-SUMO tag left out) [AFLHVGQD peptide]
[B] CFLHVGQD (Printed N-terminus SELF is read as vector Ser plus native E490-L491-F492 (numbering from the 7XYW entity, 485-728 starting AQLGTELF); His-SUMO tag left out) [CFLHVGQD peptide]
Hi! Which is lower in terms of pKd, the first one A or the second one B ? Pick one; state its label.
A
(A: 5.15, B: 5.52)

[A] SFLHVGQD (Printed N-terminus SELF is read as vector Ser plus native E490-L491-F492 (numbering from the 7XYW entity, 485-728 starting AQLGTELF); His-SUMO tag left out) [SFLHVGQD peptide]
[B] GFLHVGQD (Printed N-terminus SELF is read as vector Ser plus native E490-L491-F492 (numbering from the 7XYW entity, 485-728 starting AQLGTELF); His-SUMO tag left out) [GFLHVGQD peptide]
Hi! Which is lower in terms of pKd, the first one A or the second one B ? Pick one; state its label.
A
(A: 5.17, B: 5.60)

Cited source: paper PMC9741652
